- System: human clotting factor VIIa (Homo sapiens)
- Sequence (P08709 213-466 limits assumed): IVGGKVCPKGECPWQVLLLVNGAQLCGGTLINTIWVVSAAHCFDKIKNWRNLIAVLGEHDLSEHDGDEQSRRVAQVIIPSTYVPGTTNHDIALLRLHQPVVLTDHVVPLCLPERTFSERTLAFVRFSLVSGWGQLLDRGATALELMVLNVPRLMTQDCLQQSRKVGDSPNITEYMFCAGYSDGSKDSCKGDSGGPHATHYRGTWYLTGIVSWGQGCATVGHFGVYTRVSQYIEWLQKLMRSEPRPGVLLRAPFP
- Sequence (P08709 61-212 limits assumed): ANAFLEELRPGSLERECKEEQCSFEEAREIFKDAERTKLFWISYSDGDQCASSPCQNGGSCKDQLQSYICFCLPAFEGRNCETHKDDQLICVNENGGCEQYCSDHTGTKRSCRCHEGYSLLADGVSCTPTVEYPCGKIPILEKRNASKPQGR
- Sequence (P13726 33-295 partner): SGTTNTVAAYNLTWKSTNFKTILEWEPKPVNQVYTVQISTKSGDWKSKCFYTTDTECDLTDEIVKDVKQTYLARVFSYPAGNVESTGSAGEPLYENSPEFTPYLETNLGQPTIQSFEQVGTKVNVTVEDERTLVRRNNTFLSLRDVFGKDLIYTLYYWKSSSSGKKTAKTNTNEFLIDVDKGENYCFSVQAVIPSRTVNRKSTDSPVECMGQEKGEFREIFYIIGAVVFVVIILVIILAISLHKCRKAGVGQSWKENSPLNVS
pIC50: −log10 of the molar value. Where a name gives a salt, the structure may show the parent alone.
Observation Type: pIC50

Reference set, count: 3
{"Molecule": "CCOc1cc(C(Nc2ccc(C(=N)N)cc2)c2nn(-c3ncccn3)c(=O)[nH]2)cc2c1OCOC2 (racemic) [Example 28, acetate]", "pIC50": 8.05}
{"Molecule": "CCOc1cc(C(Nc2ccc(C(=N)N)cc2)c2nn(-c3ncccc3N)c(=O)[nH]2)ccc1OC (racemic) [Example 35, acetate]", "pIC50": 8.17}
{"Molecule": "COc1cc(CO)cc(C(Nc2ccc(C(=N)N)cc2)c2nn(-c3ncccn3)c(=O)[nH]2)c1 (racemic) [Example 12, trifluoroacetate]", "pIC50": 7.47}

A: C#Cc1cc(O[C@H]2CCOC2)cc(C(Nc2ccc(C(=N)N)cc2)c2nn(-c3ncccn3)c(=O)[nH]2)c1 (mixture of isomers) [Example 45(2), acetate]
B: COc1cc(F)c(C(Nc2ccc(C(=N)N)cc2)c2nn(-c3ncccc3Br)c(=O)[nH]2)cc1OC (centres unmarked) [Example 134, acetate]
For this pair, A and B , which shows a numerically higher pIC50? State your choice using its label.
A
(A: 8.82, B: 7.93)

A: Cc1cc(OCC(=O)N(C)C)cc(C(Nc2ccc(C(=N)N)cc2)c2nn(-c3ncccn3)c(=O)[nH]2)c1 (racemic) [Example 44, acetate]
B: COc1ccc(C(Nc2ccc(C(=N)N)cc2)c2nn(-c3cccnn3)c(=O)[nH]2)cc1OC (racemic) [Example 149, acetate]
C: CCc1cc(OCCOC)cc(C(Nc2ccc(C(=N)N)cc2)c2nn(-c3ncccn3)c(=O)[nH]2)c1 (racemic) [Example 76, trifluoroacetate]
Sort ascending by pIC50. Give the labels in the order requested.
A, B, C
(A: 7.59, B: 8.04, C: 8.28)

I: CCOc1cc(OCCF)cc(C(Nc2ccc(C(=N)N)cc2)c2nn(-c3cccnn3)c(=O)[nH]2)c1 (racemic) [Example 80, acetate]
II: COc1cc(OCCO)cc(C(Nc2ccc(C(=N)N)cc2)c2nn(-c3ncccc3N)c(=O)[nH]2)c1 (centres unmarked) [Example 207, acetate]
Short answer wanted: higher pIC50, I or II ? Let me know the label of the one you choose.
I

A: COc1cc(C(Nc2ccc(C(=N)N)cc2)c2nn(-c3cccnn3)c(=O)[nH]2)cc(OC)c1OC (racemic) [Example 88, trifluoroacetate]
B: COc1cc(O[C@H]2CCOC2)cc(C(Nc2ccc(C(=N)N)cc2)c2nn(-c3ncccn3)c(=O)[nH]2)c1 (mixture of isomers) [Example 4, acetate]
Between these two entries, A and B , state which has the higher pIC50. Respond using the label that marks the chosen record.
B

1: C#Cc1cc(OCCO)cc(C(Nc2ccc(C(=N)N)cc2)c2nn(-c3ncccn3)c(=O)[nH]2)c1 (racemic) [Example 212]
2: COc1cc(C(Nc2ccc(C(=N)N)cc2)c2nn(-c3ncccn3)c(=O)[nH]2)cc2c1OCOC2 (racemic) [Example 21, acetate]
// task: argmin of pIC50 over [ 1 , 2 ] Mark your answer with the label of the selected entry.
2
(2: 7.97, 1: 8.24)

I: COc1cc(C(Nc2ccc(C(=N)N)cc2)c2nn(-c3ncsc3C(=O)O)c(=O)[nH]2)cc2c1OCOC2 (racemic) [Example 166]
II: COc1cc(OCCO)c(F)c(C(Nc2ccc(C(=N)N)cc2)c2nn(-c3ncccn3)c(=O)[nH]2)c1 (centres unmarked) [Example 181, acetate]
III: COc1cc(CF)cc(C(Nc2ccc(C(=N)N)cc2)c2nn(-c3ncccn3)c(=O)[nH]2)c1 (centres unmarked) [Example 11, acetate]
IV: CCOc1cc(OC)cc(C(Nc2ccc(C(=N)N)cc2)c2nn(-c3cccnn3)c(=O)[nH]2)c1 (racemic) [Example 65, acetate]
// smallest pIC50 at index 0, largest at the end Give me the labels in the order the question wants.
III, I, II, IV
(III: 7.53, I: 7.73, II: 8.03, IV: 8.28)

I: COc1cc(OCCO)c(F)c(C(Nc2ccc(C(=N)N)cc2)c2nn(-c3ncccc3N)c(=O)[nH]2)c1 (racemic) [Example 201, acetate]
II: C=CCOc1cc(COC)cc(C(Nc2ccc(C(=N)N)cc2)c2nn(-c3ncccn3)c(=O)[nH]2)c1 (racemic) [Example 85, acetate]
Lab note: check whether I or II has the lower measured pIC50. API: response body contains the label of the selected item.
II
(II: 7.82, I: 8.11)

A: COc1cc(C(Nc2ccc(C(=N)N)cc2)c2nn(-c3ncccn3)c(=O)[nH]2)ccc1OCC#N (racemic) [Example 16, acetate]
B: COc1cc(OCCF)c(F)c(C(Nc2ccc(C(=N)N)cc2)c2nn(-c3ncccn3)c(=O)[nH]2)c1 (racemic) [Example 3, acetate]
C: COc1cc(C)cc(C(Nc2ccc(C(=N)N)cc2)c2nn(-c3ncccn3)c(=O)[nH]2)c1 (racemic) [Example 93, acetate]
D: COc1cc(C(Nc2ccc(C(=N)N)cc2)c2nn(-c3ncccn3)c(=O)[nH]2)cc(OC)c1OC (centres unmarked) [Example 86, acetate]
Order the records by pIC50, with each subsequent value no larger than the one before. The labels, placed in the requested order, form the answer.
B, A, C, D

1: COc1cc(C(Nc2ccc(C(=N)N)cc2)c2nn(-c3ncsc3C(N)=O)c(=O)[nH]2)c(F)c2c1OCOC2 (racemic) [Example 164]
2: COCCOc1cc(OC)cc(C(Nc2ccc(C(=N)N)cc2)c2nn(-c3ncccn3)c(=O)[nH]2)c1 (racemic) [Example 6, acetate]
Of 1 and 2 , which shows the smaller pIC50 value? Select an item and report its label.
1
